Measured values drawn from PubChem BioAssay AID256 for this set.

Attribute: T/C
test system: CD2F1 mice, L1210 leukemia ip, survival T/C; assay: NCI In Vivo Anticancer Drug Screen. Data for tumor model L1210 Leukemia (intraperitoneal) in CD2F1 (CDF1) mice; details: endpoint: mean survival time; dose: 200.0 mg/kg/injection; schedule: Q01DX009 (ip); vehicle: saline with Tween-80; higher = longer survival
Toxic doses and inconclusive results are not listed.

Answered cases to consult:
c1ccc2c(c1)CC1Sc3ccccc3N=C21 (stereo unspecified)    94 % of control
COC(c1ccccc1)C(Br)c1ccccc1 (stereo unspecified)    97 % of control
NC(=O)N/N=C/C(c1ccccc1)c1ccccc1    94 % of control
CC(=O)N(C)c1ccc(NC(=O)Nc2ccc(C)c([N+](=O)[O-])c2)cc1    90 % of control
NC(=O)N/N=C1\CC2C=CCC12 (stereo unspecified)    98 % of control

Which T/C is listed for "Cc1cc([N+](=O)[O-])ccc1NC(=S)NC(=O)COc1ccccc1" ?
93 % of control

====

tested on: CD2F1 mice, L1210 leukemia ip, survival T/C; experiment: NCI In Vivo Anticancer Drug Screen. Data for tumor model L1210 Leukemia (intraperitoneal) in CD2F1 (CDF1) mice; settings: endpoint: mean survival time; dose: 50.0 mg/kg/injection; schedule: Q04DX003 (ip); vehicle: saline; higher = longer survival
Toxic doses and inconclusive results are not listed.
experimentalReadout: T/C

Examples with their reported T/C follow.
Cc1cccc[n+]1C    100 % of control
CCCCN(CCCC)c1cc(C(C)=O)c2ccccc2n1    102 % of control
O=C1[O][Sb]23[O]C(=O)C([O]2)C(O)C(O)C2[O][Sb]4([O]C(=O)C([O]4)C(O)C(O)C1[O]3)[O]C2=O (stereo unspecified)    87 % of control
O=C(CBr)c1ccc(I)cc1    98 % of control

I'd like to know its T/C. The molecule in question is "O=S(=O)(O)c1ccc(-c2ccc(S(=O)(=O)O)cc2)cc1"
93 % of control

Do the same for "CC#CC(=O)SCCNC(=O)CCNC(C)=O" please
112 % of control

====

tested on: CD2F1 mice, L1210 leukemia ip, survival T/C; test: NCI In Vivo Anticancer Drug Screen. Data for tumor model L1210 Leukemia (intraperitoneal) in CD2F1 (CDF1) mice; conditions: endpoint: mean survival time; dose: 50.0 mg/kg/injection; schedule: Q04DX002 (ip); vehicle: saline with Tween-80; higher = longer survival
Inconclusive results and toxic doses are left out.
experimentalReadout: T/C

The cases that follow already have their T/C on record.
COCNC(=S)N/N=C/c1ccccn1    97 % of control
O=c1c2ccccc2nc2c3ccccc3nnn12    98 % of control
CCN(CC)CCCC(C)NC(c1ccc2c(c1)Sc1ccccc1O2)[P+](=O)O (stereo not drawn)    97 % of control
Cc1ccc(CCC=O)o1    100 % of control
Cc1c(Cl)ccc(OCC2=NCCN2)c1C    97 % of control

Lookup: T/C / CD2F1 mice, L1210 leukemia ip, survival T/C / CCCCCCCCCCCCCCCCCCN1C(=O)C2C3CCC(O3)C2C1=O (stereo not drawn)
98 % of control

Subsequent entry: "CC1(C)COC(=O)C(C)(C)C1=O"
96 % of control

Further, for "COc1cc([N+](=O)[O-])ccc1NC=O" ?
103 % of control

Same thing, different molecule: "Cc1c(Cl)c(Cl)c(Cl)c(I)c1Cl"
96 % of control

What about "Oc1ccccc1-c1nnc(-c2ccccc2)o1" ?
91 % of control

Request: "N#CC(=N)C(C#N)C#N"
108 % of control

Repeat with CCCCCCC[CH2][Sn]1([CH2]CCCCCCC)[O]OC(c2ccccc2)[O]1 (stereo not drawn)
92 % of control

Can you check "O=[N+]([O-])c1ccccc1-c1nn(-c2ccccc2)c2ccccc12" next?
90 % of control
